Taken from the nanobody polyreactivity screen of Harvey et al. (2022).

- Assay: yeast display, Sf9 membrane polyspecificity reagent, FACS + sequencing; frameworks hold sequencing errors

>  <Input sequence>
QVQLVESGGGLVQAGGSLRLSCAASGFTFGPYVKGWYRQAPGKERELVAAISKSGGSTYYADSVKGRFTISRDYAKNTVYLQMNSLKPEDTAVYYCATDYLGGGKRYYYWGQGTQVTVSS

>  <polyreactivity (PSR sort gate)>
high polyreactivity

$$$$
>  <Input sequence>
QVQLVESGGGLVQAGGSLRLSCAASGGTFAYKAMGWYRQAHGKERQLVAAITSSGGSTYYADSVKGRFTISRDNAKNTVYLQMNRLKPEDTAVYYCNRLRNRSLGGYYYWGQGTQVTVSS

>  <polyreactivity (PSR sort gate)>
high polyreactivity

$$$$
>  <Input sequence>
QVQLVESGGGLVQAGGSLRLSCAASGFIYSAYAMGWYRQAPGKERELVAAISYSGGTTYYADSVKGRFTISRDNAKNTVYLQMNSLKPEDTAVYYCAAGVGYWGQGTQVTVSS

>  <polyreactivity (PSR sort gate)>
high polyreactivity

$$$$
>  <Input sequence>
QVQLVESGGGLVQAGVSLRLSCAASGRTFTHYPMGWYRQAPGKERELVAAISRSGGTTYYADSVKGRFTISRDNAKSTVYLQMNSLKPEDTAVYYCNAEVVDSELGVFVDYYWAYDYWGQGTQVTVSS

>  <polyreactivity (PSR sort gate)>
high polyreactivity

$$$$
>  <Input sequence>
QVQIVESGGGLVQAGGSLRLSCAASGSIFSRNVMGWYRQAPGKERELVAAISRSGGRTYYADSVKGRFTISRDYAKNTVYLQMNSLKPEDTAVYYCNRDIGGTSVLDDYWGQGTQVTVSS

>  <polyreactivity (PSR sort gate)>
low polyreactivity

$$$$
>  <Input sequence>
QVQLVESGGGLVQAGGSLRLSCAASGRTLTIYAMGWYRQAPGKERELVATIRSSGSTNYADSVKGRFTISRDNAKNTVYLQMNSLKPEDTAVYYCAARGNTPRTRRYGYWGQGTQVTVSS

>  <polyreactivity (PSR sort gate)>
high polyreactivity

$$$$
>  <Input sequence>
QVQLVESGGGLVQAGGSLRLSCAASGFTFLYNAMGWYRQAPGKERELVAAIDSGGNTNYADSVKGRFTISRDNAKITVYLQLNSLKPEDTAVYYCAADVVSGGQGTADYDYWGQGTQVTVSS

>  <polyreactivity (PSR sort gate)>
low polyreactivity

$$$$
>  <Input sequence>
QVQLVESGGGLVQAGGSLRLSCAASGRIFSGNAMGWYRQAPGKERELVARISRSGSNTYYADSVKGRFTISRDNAKNTVYLQMKSLKPEDTAVYYCAAKSTYWPYDRTYNSWGQVTQVTVSS

>  <polyreactivity (PSR sort gate)>
high polyreactivity

$$$$
>  <Input sequence>
QVQLVDSGGYLVQAGGSLRLSCAASGTTSLFYAMGWYRQAPGKERELVAAISRTGSTHYADSVKGRFTIARANAKYTVYLQMNSLKAEDTAVYYCAAYYRYRSGRYYYWGQGTQVTVSS

>  <polyreactivity (PSR sort gate)>
high polyreactivity

$$$$
>  <Input sequence>
QVQLVESGGGLVQAGGSLRLSCAASGSIFYRYAMGWYRQAPGKERELVATITRRGGTTYYADSVKGRFTISRDNAKNTVYLKMNSLKPEDTAVYYCARPYLRASYGAIDYDYWGQGTQVTVSS

>  <polyreactivity (PSR sort gate)>
high polyreactivity

$$$$
>  <Input sequence>
QVQLVESGGGIVQAGGSLRLSCAASGFTFEKNAMGWYRQAPGKERELVAAISRGGSTYADSVKGRFRISRDNAKNTVYLQMNSLKPEDTAVYYCAADTVYIFSSAINGEFGYWGQGTQVTVSS

>  <polyreactivity (PSR sort gate)>
low polyreactivity

$$$$
